# protocol-summary: qHTS of pediatric cancer cell lines to identify multiple opportunities for drug repurposing: Primary screen for MG 63 (6-TG R) cells (AID 1347105); further: nearly all actives have a fitted effect of over 50% in size
# experimental-context: MG 63 (6-TG R) viability, CellTiter-Glo, 48 h; series mostly up to 46 µM
Results filed as inconclusive are left out. Activity calls are given as the source filed them. The call rests on the fitted dose curve; in most records, active means well fitted cell-killing curve with a large enough effect; inconclusive means small, poorly fitted or top-dose-only effect; inactive means no such curve, though single readings can be large or run the other way.
Reply using exactly one outcome from active, inactive

A selection of reference data follows.
> print(dat)
                                   molecule  qualitative.label
1  CCCCC/C=C\C/C=C\CCCCCCCC(=O)NC(C)c1ccccc1 (configuration not stated)           inactive
2       O=C(CO)[C@@H](O)[C@H](O)[C@@H](O)CO           inactive
3                   O=C(Oc1ccccc1)c1ccccc1O           inactive
4  CC(=O)Oc1ccc(C2(c3ccc(OC(C)=O)cc3)Oc3ccccc3NC2=O)cc1             active
5                      COc1ccc(CCC(C)=O)cc1           inactive

Answer briefly: the call reported for `O=C1CC[C@H](C(=O)N2CCCCC2)N1` in this assay.
inactive

Again, but for `CCCc1c2oc(C(=O)O)cc(=O)c2cc2c(=O)cc(C(=O)O)n(CC)c12`
inactive

Follow-up entry: `CC(C)(C)c1ccc(C(=O)CCCCl)cc1`
inactive

Let us now turn to CN(CC1(C)CCCO1)S(=O)(=O)c1ccc(Cl)c(S(N)(=O)=O)c1 (configuration not stated)
inactive

Try this molecule too: `NS(=O)(=O)c1cc(C(=O)NN2C[C@H]3[C@H]4CCC(C4)[C@H]3C2)ccc1Cl`
inactive

Next molecule up: `Cc1cccc(N(C)C(=S)Oc2ccc3c(c2)CCC3)c1`
inactive

Try this molecule next: `O=C(O)Cn1c(=O)n(Cc2ccc(Br)cc2F)c(=O)c2ccc(Cl)cc21`
inactive

====

# protocol-summary: Primary qHTS for inhibitors of La Crosse Virus (LACV) - induced cell death in SH-SY5Y cells (AID 1508616);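 further: top concentration of the series differs between compounds; higher means more rescue of cells from virus-induced death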
# experimental-context: SH-SY5Y LACV cytopathicity rescue, ATP luminescence, 6 d; series mostly up to 4.29 µM
Inconclusive results are not listed. Activity calls are given as the source filed them. The call rests on the fitted dose curve; in most records, active means well fitted inhibition curve with a large enough effect; inconclusive means small, poorly fitted or top-dose-only effect; inactive means no such curve, though single readings can be large or run the other way.
quantity: activity change

In the examples that follow, each entry is paired with its recorded activity change.
> print(dat)
                                   molecule     value
1                   COc1cc2c(cc1OC)C(=O)CC2  inactive
2  COC(=O)[C@H]1[C@H]2C[C@@H]3c4[nH]c5cc(OC)ccc5c4CCN3C[C@H]2C[C@@H](OC(=O)/C=C/c2ccc(O)c(OC)c2)[C@@H]1OC  inactive
3  COC(=O)C1=CO[C@@H](O)[C@@H]2C(CO)=CC[C@H]12  inactive
4             CN(C)CCCOC1(Cc2ccccc2)CCCCCC1  inactive

Entry `O=C(Nc1ccc(Cl)cc1)Nc1ccc(Cl)c(C(F)(F)F)c1` has what activity change?
inactive

====

# protocol-summary: qHTS of pediatric cancer cell lines to identify multiple opportunities for drug repurposing: Primary screen for Saos-2 cells (AID 1347097); further: nearly all actives have a fitted effect of over 40% in size
# experimental-context: Saos-2 viability, CellTiter-Glo ATP luminescence, 48 h; series mostly up to 46 µM
Results filed as inconclusive are left out. Active and inactive are the calls of the source. Calls come from the whole dose curve; as a rule, active = well fitted cell-killing curve with a large enough effect; inconclusive = small, poorly fitted or top-dose-only effect; inactive = no such curve, though single readings can be large or run the other way.
// allowed return values: t (active), f (inactive)

Just curious, what result did `C/C(=N\O)[C@@H](C)NCC(C)(C)CN[C@H](C)/C(C)=N/O` get here?
f

Moving on to `CNC(=O)c1cnn(-c2nc(N)c3ncn([C@@H]4O[C@H](CO)[C@@H](O)[C@H]4O)c3n2)c1`
f

Another: `CC(C)NCCCC1(C(N)=O)c2ccccc2-c2ccccc21`
f

# repeat for `CN1CCCN=C1/C=C/c1cccs1`
f
